# PROTOCOL TEXT: Phytotoxicity against Zea mays (maize) assessed as inhibition of shoot height at 0.5 mg/L and at 25 degC/20 degC day/night temperature 14 hr photoperiod for 3 days
# Assay type: organism-based
# TEST SETTINGS: in vivo

MOLECULE: C[C@H](Oc1ccc(Cl)cc1Cl)C(=O)O [(S)-DICHLORPROP]
inhibition at 72 h, 0.5 mg/L (%): 15.9
--
MOLECULE: C[C@@H](Oc1ccc(Cl)cc1Cl)C(=O)O [(R)-DICHLORPROP]
inhibition at 72 h, 0.5 mg/L (%): 20.7
--
MOLECULE: CC(Oc1ccc(Cl)cc1Cl)C(=O)O (racemic) [RAC-DICHLORPROP]
inhibition at 72 h, 0.5 mg/L (%): 17.6

----------
# PROTOCOL TEXT: Phytotoxicity against Zea mays (maize) assessed as inhibition of seed germination at 1 mg/L and at 27 degC in the dark for 3 days
# TEST SETTINGS: in vivo

COMPOUND: C[C@H](Oc1ccc(Cl)cc1Cl)C(=O)O [(S)-DICHLORPROP]
inhibition at 72 h, 1 mg/L [%]: 21.9
//
COMPOUND: CC(Oc1ccc(Cl)cc1Cl)C(=O)O (racemic) [RAC-DICHLORPROP]
inhibition at 72 h, 1 mg/L [%]: 31.7
//
COMPOUND: C[C@@H](Oc1ccc(Cl)cc1Cl)C(=O)O [(R)-DICHLORPROP]
inhibition at 72 h, 1 mg/L [%]: 41.4

----------
# PROTOCOL TEXT: Phytotoxicity against Zea mays (maize) assessed as inhibition of root length at 1 mg/L and at 25 degC/20 degC day/night temperature 14 hr photoperiod for 3 days
# Assay type: organism-based
# TEST SETTINGS: in vivo

COMPOUND: C[C@@H](Oc1ccc(Cl)cc1Cl)C(=O)O [(R)-DICHLORPROP]
UNITS SYMBOL: %
inhibition at 72 h, 1 mg/L: 42

COMPOUND: CC(Oc1ccc(Cl)cc1Cl)C(=O)O (racemic) [RAC-DICHLORPROP]
UNITS SYMBOL: %
inhibition at 72 h, 1 mg/L: 40.1

COMPOUND: C[C@H](Oc1ccc(Cl)cc1Cl)C(=O)O [(S)-DICHLORPROP]
UNITS SYMBOL: %
inhibition at 72 h, 1 mg/L: 39.9

----------
# PROTOCOL TEXT: Phytotoxicity against Zea mays (maize) assessed as inhibition of seed germination at 0.5 mg/L and at 27 degC in the dark for 3 days
# TEST SETTINGS: in vivo

COMPOUND: C[C@H](Oc1ccc(Cl)cc1Cl)C(=O)O [(S)-DICHLORPROP]
UNITS SYMBOL: %
inhibition at 72 h, 0.5 mg/L: 11.4
//
COMPOUND: CC(Oc1ccc(Cl)cc1Cl)C(=O)O (racemic)
UNITS SYMBOL: %
inhibition at 72 h, 0.5 mg/L: 21.4
//
COMPOUND: C[C@@H](Oc1ccc(Cl)cc1Cl)C(=O)O [(R)-DICHLORPROP]
UNITS SYMBOL: %
inhibition at 72 h, 0.5 mg/L: 34.9

----------
# PROTOCOL TEXT: Phytotoxicity against Zea mays (maize) assessed as inhibition of seed germination at 0.05 mg/L and at 27 degC in the dark for 3 days
# TEST SETTINGS: in vivo

COMPOUND: C[C@@H](Oc1ccc(Cl)cc1Cl)C(=O)O [(R)-DICHLORPROP]
inhibition at 72 h, 0.05 mg/L [%]: 10.7
//
COMPOUND: C[C@H](Oc1ccc(Cl)cc1Cl)C(=O)O [(S)-DICHLORPROP]
inhibition at 72 h, 0.05 mg/L [%]: 4.75
//
COMPOUND: CC(Oc1ccc(Cl)cc1Cl)C(=O)O (racemic) [RAC-DICHLORPROP]
inhibition at 72 h, 0.05 mg/L [%]: 8.38
